# Tested on: Staphylococcus aureus (S. aureus FDA209P)
# experiment notes: Sensitivity Test 1: antibacterial activity (MIC) by micro-dilution method
# Assay type: cell-based
# condition context: FDA209P
# Experimental: Test compounds were initially dissolved in dimethylsulfoxide. Antibacterial activities (MICs) of the same compounds were determined by the micro-dilution method as recommended by the Japanese Society of Chemotherapy. Staphylococcus aureus (S. aureus FDA209P) was used as the test organism. The bacterial cells were grown overnight at 35° C. on Mueller-Hinton agar (MHA) plates. The bacterial cells were then suspended in sterile saline and adjusted to the turbidity of a 0.5 McFarland standard. […]
Counter-ions that a name gives are not always drawn.

compound: Nc1cccc2c1ccc(=O)n2CCN1CCC(NCc2ccc3c(c2)OCCO3)CC1 [Example 263, hydrochloride]
MIC [µg/mL]: 0.125
//
compound: COc1ccc2ncc(=O)n(CCN3CCC(NCc4ccc5c(c4)OCCO5)CC3)c2c1 [Example 117, hydrochloride]
MIC [µg/mL]: 0.0313
//
compound: Cc1cc(=O)n(CCN2CCC(NCc3ccc4c(c3)OCCO4)CC2)c2cc(F)ccc12 [Example 109, hydrochloride]
MIC [µg/mL]: 0.125
//
compound: COc1ccc2ncc(=O)n(CCN3CCC(NCc4ccc5c(c4)SCCS5)CC3)c2c1 [Example 370, hydrochloride]
MIC [µg/mL]: 0.0039
//
compound: COc1ccc2ncc(=O)n(CCN3CCC(NCc4cc5c(cn4)OCCO5)CC3)c2c1 [Example 359, hydrochloride]
MIC [µg/mL]: 0.0313
//
compound: Cc1cc(=O)n(CCN2CCC(NCc3ccc4c(c3)OCCO4)CC2)c2cc(Cl)ccc12 [Example 107, hydrochloride]
MIC [µg/mL]: 0.0313
//
compound: O=C1CSc2cc(Cl)c(CNC3CCN(CCn4c(=O)cnc5ccc(F)cc54)CC3)nc2N1 [Example 368, hydrochloride]
MIC [µg/mL]: 0.0156
